- System: IGROV1 ovarian
- assay procedure: NCI tumour cell line growth inhibition, 48 h
Please go through the items and note down their TGI.

## Task Please give the measured TGI for this compound: O=C1C=C(Nc2ccccc2)c2ncccc2C1=O
## Result 2.58 µM

## Task Please give the measured TGI for this compound: c1ccc(COCC23CCN(Cc4ccccc4)C(CC(OCc4ccccc4)C2)S3)cc1 (stereo unspecified)
## Result > 100 µM

## Task Please give the measured TGI for this compound: O=C(O)/C(Cl)=C(\Cl)Nc1cccc(C(F)(F)F)c1
## Result > 100 µM

## Task Please give the measured TGI for this compound: COc1cc(CC2CCc3nc(N)nc(N)c3C2)cc(OC)c1OC (stereo unspecified)
## Result 98.2 µM

## Task Please give the measured TGI for this compound: CC(C)(Cl)CCC1=C(Cl)C(=O)c2ccccc2C1=O
## Result 5.22 µM

## Task Please give the measured TGI for this compound: CCOC(=O)Cc1ccc(Nc2nc3cc(C(F)(F)F)ccc3nc2C(=O)OCC)cc1
## Result > 100 µM

----------
- System: IGROV1 ovarian
- assay procedure: NCI tumour cell line growth inhibition, 48 h
Please go through the items and note down their TGI.
Provide the reading as a plain figure in µM.

## Task Please give the measured TGI for this molecule: Cc1nc(NC(=S)NC(=O)c2ccc(Cl)c(Cl)c2)sc1C(=O)/C=C/c1ccccc1[N+](=O)[O-]
## Result 66.7

## Task Please give the measured TGI for this molecule: CCC[CH2][Sn]1([CH2]CCC)[O]C(c2ccccn2)S(=O)(=O)[O]1 (stereo unspecified)
## Result 20.3

## Task Please give the measured TGI for this molecule: COc1cc2[nH]c(C(=O)c3cc(OC)c(OC)c(OC)c3)c(N)c2cc1C#CCO
## Result 68.8

## Task Please give the measured TGI for this molecule: CCN1C(=O)N(CC)C2C1NN=c1s/c(=C3\C(=O)N(CCC(C)C)c4ccccc43)c(=O)n12 (stereo unspecified)
## Result 6.63

## Task Please give the measured TGI for this molecule: CCCCCCCCCOC(=S)NC
## Result 63.7

## Task Please give the measured TGI for this molecule: CCCCCCCC[N+](C)(C)Cc1ccc(C[N+](C)(C)CCCCCCCC)cc1
## Result 65.1

## Task Please give the measured TGI for this molecule: CCCCCCN(CCCCCC)C(=N)c1ccnc2ccccc12
## Result 13.4

----------
Please go through the items and note down their TGI.
- Test system: SNB-78 CNS
- assay procedure: NCI tumour cell line growth inhibition, 48 h

## Task Recorded TGI for Cc1cc(N(CCC#N)CCC#N)ccc1/C=C1/CN(N2C(=O)/C(=C/c3ccc(N(CCC#N)CCC#N)cc3C)N=C2c2ccccc2)C(c2ccccc2)=N1 with SNB-78 CNS, please?
## Result > 100 µM

## Task Recorded TGI for C=C(C)C(=O)NC(N)=NC#N with SNB-78 CNS, please?
## Result 398 µM

## Task Recorded TGI for N#CN=Nc1cc(Cl)c(N=NC#N)cc1Cl with SNB-78 CNS, please?
## Result > 100 µM

## Task Recorded TGI for Nn1c(CCCl)nc2c(Br)cc(Br)cc2c1=O with SNB-78 CNS, please?
## Result > 100 µM

## Task Recorded TGI for CCSC(=Nc1ccccc1)SC with SNB-78 CNS, please?
## Result > 100 µM

## Task Recorded TGI for CC(N)Cc1cccc(C(F)(F)F)c1 (stereo unspecified) with SNB-78 CNS, please?
## Result > 100 µM

Hello, the source for this data is PubChem BioAssay (NCI), in case you need it.
